- experiment: Bioavailability of O-desmethyl-venlafaxine in beagle dogs
- Type: in vivo
- settings: male, dog, plasma, iv, 25 mg, free ODV levels, Intravenous Solution (25 mg), mean (% CV)
endpoint_label: AUC (ng·h/mL)
Report as a plain number; the unit ng·h/mL is understood.

Request: Return AUC for the following compound: CN(C)CC(c1ccc(O)cc1)C1(O)CCCCC1.O=C(O)CCC(=O)O (stereo not shown) [ODV succinate, O-desmethyl-venlafaxine succinate]
Response: 746

###

- experiment: Bioavailability of O-desmethyl-venlafaxine in beagle dogs
- Type: in vivo
- settings: male, dog, plasma, po, 75 mg, free ODV levels, Capsule (75 mg), mean (% CV)
endpoint_label: Cmax (ng/mL)
Report as a plain number; the unit ng/mL is understood.

Request: Return Cmax for the following compound: CN(C)CC(c1ccc(O)cc1)C1(O)CCCCC1.O=C(O)CCC(=O)O (stereo not shown) [ODV succinate, O-desmethyl-venlafaxine succinate]
Response: 465

###

- experiment: Bioavailability of O-desmethyl-venlafaxine in beagle dogs
- Assay type: in vivo
- settings: male, dog, plasma, po, 75 mg, free ODV levels, Oral Solution (75 mg), mean (% CV)
endpoint_label: AUC

Request: Return AUC for the following compound: CN(C)CC(c1ccc(O)cc1)C1(O)CCCCC1.O=C(O)CCC(=O)O (stereo not shown) [ODV succinate, O-desmethyl-venlafaxine succinate]
Response: 835 ng·h/mL

###

- experiment: Bioavailability of O-desmethyl-venlafaxine in beagle dogs
- Assay type: in vivo
- settings: male, dog, plasma, po, 75 mg, free ODV levels, Capsule (75 mg), mean (% CV), read-out: Absolute Bioavailability (%)
endpoint_label: bioavailability (%)
Report as a plain number; the unit % is understood.

Request: Return bioavailability for the following compound: CN(C)CC(c1ccc(O)cc1)C1(O)CCCCC1.O=C(O)CCC(=O)O (stereo not shown) [ODV succinate, O-desmethyl-venlafaxine succinate]
Response: 40

###

- experiment: Bioavailability of O-desmethyl-venlafaxine in beagle dogs
- Format: in vivo
- settings: male, dog, plasma, po, 75 mg, free ODV levels, Oral Solution (75 mg), mean (% CV), read-out: Absolute Bioavailability (%)
endpoint_label: bioavailability (%)
Report as a plain number; the unit % is understood.

Request: Return bioavailability for the following compound: CN(C)CC(c1ccc(O)cc1)C1(O)CCCCC1.O=C(O)CCC(=O)O (stereo not shown) [ODV succinate, O-desmethyl-venlafaxine succinate]
Response: 37

###

- experiment: Bioavailability of O-desmethyl-venlafaxine in beagle dogs
- Assay type: in vivo
- settings: male, dog, plasma, po, 75 mg, free ODV levels, Tablet (75 mg), mean (% CV)
endpoint_label: Cmax (ng/mL)
Report as a plain number; the unit ng/mL is understood.

Request: Return Cmax for the following compound: CN(C)CC(c1ccc(O)cc1)C1(O)CCCCC1.O=C(O)CCC(=O)O (stereo not shown) [ODV succinate, O-desmethyl-venlafaxine succinate]
Response: 115

###

- experiment: Bioavailability of O-desmethyl-venlafaxine in beagle dogs
- Format: in vivo
- settings: male, dog, plasma, po, 75 mg, free ODV levels, Oral Solution (75 mg), mean (% CV)
endpoint_label: Tmax (min)
Report as a plain number; the unit min is understood.

Request: Return Tmax for the following molecule: CN(C)CC(c1ccc(O)cc1)C1(O)CCCCC1.O=C(O)CCC(=O)O (stereo not shown) [ODV succinate, O-desmethyl-venlafaxine succinate]
Response: 30

###

- experiment: Bioavailability of O-desmethyl-venlafaxine in beagle dogs
- Assay type: in vivo
- settings: male, dog, plasma, po, 75 mg, free ODV levels, Tablet (75 mg), mean (% CV), read-out: Absolute Bioavailability (%)
endpoint_label: bioavailability (%)
Report as a plain number; the unit % is understood.

Request: Return bioavailability for the following compound: CN(C)CC(c1ccc(O)cc1)C1(O)CCCCC1.O=C(O)CCC(=O)O (stereo not shown) [ODV succinate, O-desmethyl-venlafaxine succinate]
Response: 31

###

- experiment: Bioavailability of O-desmethyl-venlafaxine in beagle dogs
- Format: in vivo
- settings: male, dog, plasma, po, 75 mg, free ODV levels, Capsule (75 mg), mean (% CV)
endpoint_label: AUC (ng·h/mL)
Report as a plain number; the unit ng·h/mL is understood.

Request: Return AUC for the following compound: CN(C)CC(c1ccc(O)cc1)C1(O)CCCCC1.O=C(O)CCC(=O)O (stereo not shown) [ODV succinate, O-desmethyl-venlafaxine succinate]
Response: 904

###

- experiment: Aqueous solubility (UV spectrophotometry)
- Type: physicochemical
- settings: water, thermodynamic from solid; at 25° C.
endpoint_label: solubility

Request: Return solubility for the following compound: CN(C)CC(c1ccc(O)cc1)C1(O)CCCCC1.O=C(O)CCC(=O)O (stereo not shown) [Form I]
Response: 32.2 mg/mL

Reference source: patent US7291347B2
